Attribute: log10 of Ki
Measured target: human μ-opiate receptor (Homo sapiens)
Sequence (P35372 whole entry): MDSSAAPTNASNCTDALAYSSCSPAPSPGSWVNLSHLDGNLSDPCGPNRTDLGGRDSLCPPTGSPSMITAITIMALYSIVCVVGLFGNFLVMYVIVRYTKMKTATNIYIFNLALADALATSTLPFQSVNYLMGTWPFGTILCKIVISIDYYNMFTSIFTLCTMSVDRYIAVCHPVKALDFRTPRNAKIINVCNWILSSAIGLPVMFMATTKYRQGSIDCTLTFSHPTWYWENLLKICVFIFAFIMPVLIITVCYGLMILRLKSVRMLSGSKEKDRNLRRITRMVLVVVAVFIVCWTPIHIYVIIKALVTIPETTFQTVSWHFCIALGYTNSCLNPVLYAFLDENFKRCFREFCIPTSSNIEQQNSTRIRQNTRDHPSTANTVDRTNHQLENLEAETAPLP
Experimental details: Affinity for the human μ-opiate receptor ([3H]-naloxone displacement, SPA, CHO-K1 membrane preparation)
Assay type: binding
Experimental setup: read-out: μ-Opioid receptor, Ki
Where a name gives a salt, the structure may show the parent alone.
The figures below represent log10 of Ki, where Ki is stated in nM.

Please review the entries below; each comes with its answer.
| Molecule | Measured target | Readout value |
| --- | --- | --- |
| CN(C)C(c1ccccc1)C1CCC(OCc2ccc(F)cc2)CC1 (stereo not drawn) [compound 145, hydrochloride] | human μ-opiate receptor (Homo sapiens) | 2.49 |
| Cc1oc(-c2ccccc2)cc1C(=O)NC1CCC(C(c2cccc(F)c2)N(C)C)CC1 (stereo not drawn) | human μ-opiate receptor (Homo sapiens) | 1.56 |
| COc1ccccc1C(=O)NCCC1CCC(C(c2cccc(F)c2)N(C)C)CC1 (stereo not drawn) | human μ-opiate receptor (Homo sapiens) | 0.71 |
| COc1ccc(CNC2CCC(C(c3ccccc3)N(C)C)CC2)cc1 (stereo not drawn) [compound 90, dihydrochloride] | human μ-opiate receptor (Homo sapiens) | 1.65 |
| CN(C)C(c1ccccc1)C1CCC(CCNC(=O)C2(c3ccc(Cl)cc3)CCCC2)CC1 (stereo not drawn) | human μ-opiate receptor (Homo sapiens) | 1.56 |

Q: # value lookup — system human μ-opiate receptor (Homo sapiens), readout log10 of Ki, item CN(C)C(c1cccc(F)c1)C1CCC(CNC(=O)c2csc(-c3ccccc3)n2)CC1 (stereo not drawn)
Ans: 1.87

Q: # value lookup — system human μ-opiate receptor (Homo sapiens), readout log10 of Ki, item CN(C)C(c1ccccc1)C1CCC(NC(=O)c2ccccc2Br)CC1 (stereo not drawn)
Ans: 1.73

Q: # value lookup — system human μ-opiate receptor (Homo sapiens), readout log10 of Ki, item CN(C)C(c1ccccc1)C1CCC(N(Cc2ccccc2)C(=O)c2ccc(F)cc2)CC1 (stereo not drawn) [compound 103, hydrochloride]
Ans: 0.94

Q: # value lookup — system human μ-opiate receptor (Homo sapiens), readout log10 of Ki, item CN(C)C(c1ccccc1)C1CCC(CNC(=O)c2cc(Cl)cc(Cl)c2)CC1 (stereo not drawn)
Ans: 1.54

Q: # value lookup — system human μ-opiate receptor (Homo sapiens), readout log10 of Ki, item CN(C)C(c1ccccc1)C1CCC(NC(=O)C2(c3ccc(Cl)cc3)CCCC2)CC1 (stereo not drawn)
Ans: 0.72

Q: # value lookup — system human μ-opiate receptor (Homo sapiens), readout log10 of Ki, item CN(C)C(c1ccc(F)cc1)C1CCC(NC(=O)c2ccc(F)cc2)CC1 (stereo not drawn)
Ans: 1.98
